Test system: SF-539 CNS
test: NCI-60 one-dose screen, 48 h (100 = growth as untreated, 0 = no growth, -100 = all killed)
assay_context: 10 µM unless noted
This is part of a sample that, as a whole, favours compounds with a hit. Of some 83,000 tested, about 20% had one in any assay. Calls of active or inactive are those of the source. The calls were made as follows: active = growth percent below 10; inactive = the rest.
growth listing for selected molecules.

Here are 10 molecules together with their reported answers.
molecule	growth
O=C(c1ccccc1)c1c(/C=C/c2ccccc2)nc2ccccc2c1/C=C/c1ccc(Br)cc1	106% (inactive)
O=C1/C(=C\c2cccnc2)SC(=S)N1CCc1ccc(O)cc1	23.2% (inactive)
Cc1cccc(NC(=O)CSc2nc3ccccc3[nH]2)c1	98.1% (inactive)
O=C1/C(=C/c2ccc(Br)cc2)C=C(c2ccccc2)N1CCc1ccccc1	36% (inactive)
CC(C)C(=O)Nc1n[nH]c2cc(-c3cccc(NS(=O)(=O)C4CC4)c3)ccc12	77.8% (inactive)
COc1ccc(C2=NN(C(=O)c3cc(OC)c(OC)c(OC)c3)C(c3ccc(Cl)cc3)C2)cc1OC (stereo not drawn)	-3.19% (active)
COc1ccc(N=C(c2ccccc2)C2C(=O)c3ccccc3C2=O)cc1	72.3% (inactive)
COc1cc(C2CC(=O)Nc3c2c(C)nn3-c2nc3ccccc3[nH]2)cc2c1OCC(=O)N2 (stereo not drawn)	50.6% (inactive)
Cc1nn(-c2ccccc2)c(Oc2ccc(Cl)cc2)c1/C=N\N=c1/sc2ccccc2n1C	107% (inactive)
O=C(NC(CSSCC(NC(=O)c1ccccc1)C(=O)O)C(=O)O)c1ccccc1 (stereo not drawn)	102% (inactive)

Give growth only, for O=C1Nc2ccc(F)cc2C12Nc1cc(Cl)ccc1S2 (stereo not drawn) , using SF-539 CNS data.
93.8% (inactive)

Give growth only, for `CCc1c2c(nc3ccc(OC(=O)OCc4ccc(B5OC(C)(C)C(C)(C)O5)cc4)cc13)-c1cc3c(c(=O)n1C2)COC(=O)[C@]3(O)CC` , using SF-539 CNS data.
-62.9% (active)

Give growth only, for `C[n+]1cccc(CC(=O)NO)c1` , using SF-539 CNS data.
90.9% (inactive)

Give growth only, for `NC(N)=Nc1nc2ccccc2n2c1nc1ccccc12` , using SF-539 CNS data.
50.3% (inactive)

Give growth only, for `Cc1c(C(=O)OC(=NC2CCCCC2)NC2CCCCC2)sc2c1c(=O)nc1c(C#N)n[nH]n12` , using SF-539 CNS data.
104% (inactive)

Give growth only, for `Cc1cc(Cl)ccc1Nc1nc(C(F)(F)F)ccc1C(=O)N/N=C/c1ccc(N(C)C)cc1` , using SF-539 CNS data.
41.4% (inactive)

Give growth only, for `COc1ccc2oc3c(C)c4c(c(C)c3c2c1)C(=O)N(Cc1ccccc1)C4=O` , using SF-539 CNS data.
89.7% (inactive)

Give growth only, for `CCOC(=O)c1c2ncccc2n2c(=O)n(-c3ccccc3C)nnc12` , using SF-539 CNS data.
91.8% (inactive)

Give growth only, for `NS(=O)(=O)c1cnccc1Oc1cccc2cccnc12` , using SF-539 CNS data.
88.3% (inactive)

Give growth only, for `Cc1ccc(Cl)cc1NC(=O)c1cc2ccccc2cc1O` , using SF-539 CNS data.
-0.708% (active)

Give growth only, for `NC(N)=NN=C(c1ccccc1)c1ccccc1` , using SF-539 CNS data.
19.3% (inactive)

Give growth only, for CC1CC(C(C)(C)C)C(=O)C(C(C)(C)C)C1 (stereo not drawn) , using SF-539 CNS data.
101% (inactive)

Give growth only, for CC(=O)OC[C@H]1OC(Sc2sc(C(=O)c3ccc(Br)cc3)c(N)c2-c2nc3ccccc3s2)[C@H](OC(C)=O)[C@@H](OC(C)=O)[C@@H]1OC(C)=O (stereo partly drawn) , using SF-539 CNS data.
15.7% (inactive)

Give growth only, for `CCN(CC)CCCCCCNc1cc(OC)c(Cl)c2cccnc12` , using SF-539 CNS data.
81.9% (inactive)

Give growth only, for `C=CC(=O)Nc1cccc(Oc2nccc(Nc3nnc(C4CC4)s3)n2)c1` , using SF-539 CNS data.
89.1% (inactive)

====

Test system: ACHN renal
test: NCI-60 one-dose screen, 48 h (100 = growth as untreated, 0 = no growth, -100 = all killed)
assay_context: 10 µM unless noted
Compounds without any hit were thinned out: in the full panel of roughly 83,000, 20% have a hit.
Sorting guide: entries reporting growth beneath 40% go in the 1 (yes) pile, the rest go in the 0 (no) pile.

Worked examples follow.
compound	target_desc	label
N#CC1=C(NC=O)Oc2c(ccc3ccccc23)C1c1ccccc1 (stereo not given)	ACHN renal	0 (no)
O=C1OC(c2nc3ccccc3s2)=C/C1=C\c1ccc(O)cc1	ACHN renal	0 (no)
COc1cccc(-c2nn(-c3ccccc3)cc2-c2ccnc(NCCNC(=O)c3ccccc3)c2)c1	ACHN renal	0 (no)
O=C(c1ccc(Nc2nccc(NCCCCNc3ccnc4cc(Cl)ccc34)n2)cc1)N1CCCCC1	ACHN renal	1 (yes)

Consider the additional compound presented here.
Determine if `C[C@H]1[C@H]2[C@H]3CC[C@@H]4[C@@]5(C)C/C(=C/c6cccnc6)C(=O)C(C)(C)[C@@H]5CC[C@@]4(C)[C@]3(C)CC[C@]23CO[C@]1(C)[C@@H](C(=O)/C=C\c1cccnc1)C3` shows growth strictly lower than 40%.
1 (yes)

====

System: MCF7 breast
test: NCI-60 one-dose screen, 48 h
assay_context: 10 µM unless noted
The panel holds about 83,000 compounds, 20% with a hit somewhere; the sample as a whole holds those more often. Active and inactive are the calls of the source. The calls were made as follows: active = growth percent below 10; inactive = the rest.
Hi there, use one of these labels in your reply, thanks! True = active, False = inactive

Worked examples follow.
smiles_text	label
Cc1cc(NCc2cc(Nc3ccnc4cc(Cl)ccc34)ccc2F)nc(N2CCCC2)n1	True
CCCCCCCC/C=C\CCCCCCCCOc1ccccc1CC(=O)NCC[N+](C)(C)C	False

// return assay outcome for `O=C1Nc2ccccc2/C1=C/c1cn(C(=O)c2ccc(Cl)cc2)c2ccccc12`
False

====

Test system: HS 578T breast
test: NCI-60 one-dose screen, 48 h (100 = growth as untreated, 0 = no growth, -100 = all killed)
assay_context: 10 µM unless noted
The panel holds about 83,000 compounds, 20% with a hit somewhere; the sample as a whole holds those more often.
Sorting guide: entries reporting growth beneath 90% go in the 1 pile, the rest go in the 0 pile.

Worked examples follow.
smiles_text	label
O=Cc1ccc(O)c2ncccc12	1
O=C(NCCCNc1cc(-c2cn(-c3ccccc3)nc2-c2cccc(O)c2)ccn1)c1cccc(O)c1	1
Cc1cc(Cl)ccc1Nc1nc(C(F)(F)F)ccc1C(=O)N/N=C/c1ccc(N(C)C)cc1	1

Consider the additional molecule presented here.
Determine if `Cc1ccc(-n2c(-c3ccccc3)c(-c3ccccc3)c3c(SCC(=O)n4[nH]c(N)cc4=O)ncnc32)cc1` shows growth strictly lower than 90%.
0

====

System: NCI-H23 lung
test: NCI-60 one-dose screen, 48 h
assay_context: 10 µM unless noted
The panel holds about 83,000 compounds, 20% with a hit somewhere; the sample as a whole holds those more often. Active and inactive are the calls of the source. Rule for the calls: active = growth percent below 10; inactive = the rest.
Hi there, use one of these labels in your reply, thanks! 1 for active, 0 for inactive

// return assay outcome for `CCCCNC(=O)Oc1ccc2c(=O)c3sc4c(=O)c5ccccc5c(=O)c4c3c(=O)c2c1`
1

// return assay outcome for `COc1cc(/C=N/Nc2ncc(-c3cc4cc5c(cc4o3)OCO5)s2)cc(OC)c1OC`
0

// return assay outcome for `COc1cccc(-c2nn(-c3ccccc3)cc2-c2ccnc(NCCNC(=O)c3ccccc3)c2)c1`
0

// return assay outcome for `C=CCn1c(C)nc2cc(Nc3nc(Cl)nc4ccccc34)ccc21`
0

// return assay outcome for `Cc1cccc(NC(=O)N/C(N)=N/c2nc(C)c(C)s2)c1`
0

// return assay outcome for `COc1cc(/C=N/n2c(CN3CCOCC3)nc3ccccc3c2=O)cc(OC)c1OC`
0

// return assay outcome for `CCOc1ccccc1-c1cc(-c2cccs2)c(C#N)c(=O)[nH]1`
0

====

growth listing for selected molecules.
System: HCT-116 colon
test: NCI-60 one-dose screen, 48 h (100 = growth as untreated, 0 = no growth, -100 = all killed)
assay_context: 10 µM unless noted
Procedure: Growth inhibition of the HCT-116 human tumor cell line is measured as a screen for anti-cancer activity. Cells are grown in 96 well plates and exposed to the test compound for 48 hours. Compounds are tested at a single concentration, which is 10^-5 M for most compounds. The reported endpoint is percent growth (GI% or GIPRCNT), where numbers from 0 - 100% represent growth inhibition, and numbers from -100% - 0 represent cell death. For example, a value of 40 represents 60% growth inhibition. […]
The panel holds about 83,000 compounds, 20% with a hit somewhere; the sample as a whole holds those more often.
Write it as a number; the unit % goes unstated.

Supply recorded growth for `O=C(Nc1ccccc1Cl)Oc1ccc(-c2ccccc2)cc1` here.
110

Supply recorded growth for `CC/C=C\C[C@H](O)C/C=C1/C(=O)C=C[C@@H]1C/C=C\CCCC(=O)OC` here.
-56.5
